# Tested on: MALME-3M (melanoma) vs MALME-3 (normal) cells
# experiment: MALME-3/MALME-3M IC50 ratio, a measure of selectivity
# Type: cell-based, human
# test.context: 96 h; 1 mM AG
Output class 1 for records whose MALME-3/MALME-3M IC50 ratio is lower than 20, class 0 for records at or above 20.

>  <compound>
Cl.NCCCCNCCCCNCc1c2ccccc2cc2ccccc12 [Compound 5a, reference compound]

>  <target.of.assay>
MALME-3M (melanoma) vs MALME-3 (normal) cells

>  <answer.label>
class 1

$$$$
>  <compound>
Cl.NCCCCNCCCCNCc1ccc(CNCCCCNCCCCN)cc1

>  <target.of.assay>
MALME-3M (melanoma) vs MALME-3 (normal) cells

>  <answer.label>
class 1

$$$$
>  <compound>
NCCCCNCCCCNCc1c2ccccc2c(CNCCCCNCCCCN)c2ccccc12

>  <target.of.assay>
MALME-3M (melanoma) vs MALME-3 (normal) cells

>  <answer.label>
class 0

$$$$
>  <compound>
CNCCCCNCCCCNCc1ccc(CNCCCCNCCCCNC)c2ccccc12

>  <target.of.assay>
MALME-3M (melanoma) vs MALME-3 (normal) cells

>  <answer.label>
class 0

$$$$
>  <compound>
CNCCCCNCCCCNCc1c2ccccc2c(CNCCCCNCCCCNC)c2ccccc12

>  <target.of.assay>
MALME-3M (melanoma) vs MALME-3 (normal) cells

>  <answer.label>
class 1

$$$$
>  <compound>
CNCCCCNCCCCNCc1ccc(CNCCCCNCCCCNC)cc1

>  <target.of.assay>
MALME-3M (melanoma) vs MALME-3 (normal) cells

>  <answer.label>
class 1

$$$$
>  <compound>
CNCCCCNCCCCNCc1c2ccccc2cc2ccccc12

>  <target.of.assay>
MALME-3M (melanoma) vs MALME-3 (normal) cells

>  <answer.label>
class 1

$$$$
>  <compound>
NCCCCNCCCCNCc1ccc(CNCCCCNCCCCN)c2ccccc12

>  <target.of.assay>
MALME-3M (melanoma) vs MALME-3 (normal) cells

>  <answer.label>
class 0

$$$$
